The measured values listed here are drawn from the supplement of paper PMC11061612.

combination Emax overview
# Test system: DMS-114 (Small Cell Lung Carcinoma)
# Protocol text: combination Emax (second highest fraction inhibited in the dose matrix, 72 h); higher = more inhibition; extreme values may be limits of the assay
Provide a numeric answer; units are not to be included.

Below, 3 molecules whose answers are already recorded.
Prompt: Fill in: combination Emax of CCN(CCO)CCCOc1ccc2c(Nc3cc(CC(=O)Nc4cccc(F)c4)[nH]n3)ncnc2c1 [AZD2811] + O=C(c1cc(Cc2n[nH]c(=O)c3ccccc23)ccc1F)N1CCN(C(=O)C2CC2)CC1 [Olaparib] (first compound max 1 µM, 7x7, partner max 10 µM) is ___
Response: 0.177

Prompt: Lookup CN(C)CCCOc1ccc(-c2ccc3ncc4c(c3c2)n(C2CCOCC2)c(=O)n4C)cn1 [AZD0156] + C[C@@H]1COCCN1C2=NC(=NC(=C2)C3(CC3)[S@](=N)(=O)C)C4=C5C=CNC5=NC=C4 [AZD6738] (first compound max 1 µM, 7x7, partner max 10 µM)
Response: 0.515

Prompt: Cool, now C=CCn1c(=O)c2cnc(Nc3ccc(N4CCN(C)CC4)cc3)nc2n1-c1cccc(C(C)(C)O)n1 [AZD1775] + C[C@@H]1COCCN1C2=NC(=NC(=C2)C3(CC3)[S@](=N)(=O)C)C4=C5C=CNC5=NC=C4 [AZD6738] (first compound max 1 µM, partner max 10 µM)
Response: 0.511

With those in mind, consider the next molecule.
Prompt: Requested field: combination Emax. Item: CN(CCO)CC[C@H](CSc1ccccc1)Nc1ccc(S(=O)(=O)NC(=O)c2ccc(N3CCC([C@@H](O)c4ccccc4-c4ccc(Cl)cc4)CC3)cc2)cc1S(=O)(=O)C(F)(F)F [AZD4320] + C[C@@H]1COCCN1C2=NC(=NC(=C2)C3(CC3)[S@](=N)(=O)C)C4=C5C=CNC5=NC=C4 [AZD6738] (first compound max 1 µM, 7x7, partner max 10 µM)
Response: 0.592

====

Entries and their measured combination Emax follow.
# System: OCI-AML3 (Acute Myeloid Leukemia)
# Protocol text: combination Emax (second highest fraction inhibited in the dose matrix, 72 h); higher = more inhibition; extreme values may be limits of the assay

As a guide, the following entries are already answered.
Prompt: Which combination Emax is listed for N#Cc1cnc(Nc2cc(NC[C@H]3CNCCO3)c(C(F)(F)F)cn2)cn1 [SRA737] + Nc1ccn([C@@H]2O[C@H](CO)[C@@H](O)C2(F)F)c(=O)n1 [Gemcitabine] (first compound max 10 µM, 7x7, partner max 0.3 µM) ?
Response: 0.93

Prompt: Ok, now C[C@@H](Nc1cc(F)cc(F)c1)c1cc(C(=O)N(C)C)cc2c(=O)cc(N3CCOCC3)oc12 [AZD8186] + CC(=O)c1c(C)c2cnc(Nc3ccc(N4CCNCC4)cn3)nc2n(C2CCCC2)c1=O [Palbociclib] (first compound max 10 µM, 7x7, partner max 10 µM)
Response: 0.525

Prompt: Try the molecule CS(=O)(=O)CCNCc1ccc(-c2ccc3ncnc(Nc4ccc(OCc5cccc(F)c5)c(Cl)c4)c3c2)o1 [Lapatinib] + C[C@@H](Oc1cc(-c2cnn(C3CCNCC3)c2)cnc1N)c1c(Cl)ccc(F)c1Cl [Crizotinib] (first compound max 10 µM, 7x7, partner max 10 µM)
Response: 0.846

Prompt: One more molecule: CS(=O)(=O)CCNCc1ccc(-c2ccc3ncnc(Nc4ccc(OCc5cccc(F)c5)c(Cl)c4)c3c2)o1 [Lapatinib] + Cn1cnc2c(F)c(Nc3ccc(Br)cc3Cl)c(C(=O)NOCCO)cc21 [Selumetinib] (first compound max 10 µM, 7x7, partner max 10 µM)
Response: 0.879

Prompt: Okay, and N#Cc1cnc(Nc2cc(NC[C@H]3CNCCO3)c(C(F)(F)F)cn2)cn1 [SRA737] + O=c1[nH]cc(F)c(=O)[nH]1 [5-Fluorouracil] (first compound max 10 µM, 7x7, partner max 20 µM) ?
Response: 0.922

Further cases:
Prompt: Looking for the measured combination Emax of C[C@@H](c1ccc2nccn2c1)n1nnc2ncc(-c3cnn(C)c3)nc21 [Savolitinib] + Cc1c2c(nn1C)CSCc1cc(n(C)n1)CSc1cc(c3ccccc3c1)OCCCc1c(C(=O)O)n(C)c3c-2c(Cl)ccc13 [AZD5991] (first compound max 1 µM, 7x7, partner max 1 µM) , can you help?
Response: 0.967

Prompt: Another molecule to look at: COc1cc2ncnc(Nc3ccc(F)c(Cl)c3)c2cc1OCCCN1CCOCC1 [Gefitinib] + CC(C)n1c(=O)n(C)c2cnc3cc(F)c(-c4ccc(OCCCN5CCCCC5)nc4)cc3c21 [AZD1390] (first compound max 10 µM, 7x7, partner max 0.3 µM)
Response: 0.059

Prompt: Queued: Cn1cnc2c(F)c(Nc3ccc(Br)cc3Cl)c(C(=O)NOCCO)cc21 [Selumetinib] + C=CCn1c(=O)c2cnc(Nc3ccc(N4CCN(C)CC4)cc3)nc2n1-c1cccc(C(C)(C)O)n1 [AZD1775] (first compound max 10 µM, partner max 1 µM)
Response: 0.94

====

# System: HCC1187 (Breast Carcinoma);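 also: after 72 h of two-drug dosing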
# Protocol text: Bliss excess, mean over the matrix (fraction); higher = more synergy
Endpoint label: Bliss excess

Example entries begin here.
Prompt: Fill blank: measured Bliss excess of the compound COc1nnc2ccc(N3CCC(c4ccc(OCCN5CCN(C)C(=O)[C@H]5C)cc4)CC3)nn12 [AZD5153] + C[C@@H]1COCCN1C2=NC(=NC(=C2)C3(CC3)[S@](=N)(=O)C)C4=C5C=CNC5=NC=C4 [AZD6738] (first compound max 1 µM, 7x7, partner max 10 µM) is ____.
Response: 0.0265

Prompt: What do you get for Cn1cnc2c(F)c(Nc3ccc(Br)cc3Cl)c(C(=O)NOCCO)cc21 [Selumetinib] + C[C@@H]1COCCN1C2=NC(=NC(=C2)C3(CC3)[S@](=N)(=O)C)C4=C5C=CNC5=NC=C4 [AZD6738] (first compound max 10 µM, 7x7, partner max 10 µM) ?
Response: -0.0539

Prompt: Param item: CN(CCO)CC[C@H](CSc1ccccc1)Nc1ccc(S(=O)(=O)NC(=O)c2ccc(N3CCC([C@@H](O)c4ccccc4-c4ccc(Cl)cc4)CC3)cc2)cc1S(=O)(=O)C(F)(F)F [AZD4320] + Cc1cc2ncnn2cc1Nc1ncc2c(n1)n(C1CCOCC1)c(=O)n2C [AZD7648] (first compound max 1 µM, 7x7, partner max 10 µM)
Response: -0.025

Prompt: Now the compound Cc1cc2ncnn2cc1Nc1ncc2c(n1)n(C1CCOCC1)c(=O)n2C [AZD7648] + CN(C)CCCOc1ccc(-c2ccc3ncc4c(c3c2)n(C2CCOCC2)c(=O)n4C)cn1 [AZD0156] (first compound max 10 µM, 7x7, partner max 1 µM)
Response: -0.0086

Prompt: Please do the same for COc1cccc(OCCCN)c1-c1cc(Nc2cnc(C#N)cn2)n[nH]1 [Prexasertib] + CCc1c2c(nc3ccc(O)cc13)-c1cc3c(c(=O)n1C2)COC(=O)[C@]3(O)CC [SN-38] (first compound max 1 µM, 7x7, partner max 0.3 µM) as well.
Response: 0.164

Prompt: Likewise for CN(CCO)CC[C@H](CSc1ccccc1)Nc1ccc(S(=O)(=O)NC(=O)c2ccc(N3CCC([C@@H](O)c4ccccc4-c4ccc(Cl)cc4)CC3)cc2)cc1S(=O)(=O)C(F)(F)F [AZD4320] + C[C@@H]1COCCN1C2=NC(=NC(=C2)C3(CC3)[S@](=N)(=O)C)C4=C5C=CNC5=NC=C4 [AZD6738] (first compound max 1 µM, 7x7, partner max 10 µM) ?
Response: -0.0209

Next:
Prompt: Which Bliss excess value is on record for COc1cccc(OCCCN)c1-c1cc(Nc2cnc(C#N)cn2)n[nH]1 [Prexasertib] + Cc1cc2ncnn2cc1Nc1ncc2c(n1)n(C1CCOCC1)c(=O)n2C [AZD7648] (first compound max 1 µM, 7x7, partner max 10 µM) ?
Response: 0.0307

====

List of combination Emax values.
# Tested on: NCI-H2731 (Mesothelioma)
# Protocol text: combination Emax (second highest fraction inhibited in the dose matrix, 72 h); higher = more inhibition; extreme values may be limits of the assay
Output: the number by itself.

Examples with answers:
Prompt: Fill blank: measured combination Emax of the molecule COc1cccc2c1C(=O)c1c(O)c3c(c(O)c1C2=O)C[C@@](O)(C(=O)CO)C[C@@H]3O[C@H]1C[C@H](N)[C@H](O)[C@H](C)O1 [Doxorubicin] + Cc1cc2ncnn2cc1Nc1ncc2c(n1)n(C1CCOCC1)c(=O)n2C [AZD7648] (first compound max 1 µM, 7x7, partner max 10 µM) is ____.
Response: 0.715

Prompt: Cool, now COc1nnc2ccc(N3CCC(c4ccc(OCCN5CCN(C)C(=O)[C@H]5C)cc4)CC3)nn12 [AZD5153] + Cn1cnc2c(F)c(Nc3ccc(Br)cc3Cl)c(C(=O)NOCCO)cc21 [Selumetinib] (first compound max 1 µM, 7x7, partner max 10 µM)
Response: 0.39

Prompt: Could you do the same for N#Cc1cnc(Nc2cc(NC[C@H]3CNCCO3)c(C(F)(F)F)cn2)cn1 [SRA737] + O=c1[nH]cc(F)c(=O)[nH]1 [5-Fluorouracil] (first compound max 10 µM, 7x7, partner max 20 µM) , please?
Response: 0.172

Prompt: What do you get for Cc1nc(Nc2ncc(C(=O)Nc3c(C)cccc3Cl)s2)cc(N2CCN(CCO)CC2)n1 [Dasatinib] + CC(=O)Nc1cccc(-n2c(=O)n(C3CC3)c(=O)c3c(Nc4ccc(I)cc4F)n(C)c(=O)c(C)c32)c1 [Trametinib] (first compound max 2 µM, 7x7, partner max 1 µM) ?
Response: 0.361

Prompt: Same question, Cc1c2c(nn1C)CSCc1cc(n(C)n1)CSc1cc(c3ccccc3c1)OCCCc1c(C(=O)O)n(C)c3c-2c(Cl)ccc13 [AZD5991] + CC(=O)O[C@H]1C(=O)[C@@]2(C)[C@H]([C@H](OC(=O)c3ccccc3)[C@]3(O)C[C@H](OC(=O)[C@H](O)[C@@H](NC(=O)c4ccccc4)c4ccccc4)C(C)=C1C3(C)C)[C@]1(OC(C)=O)CO[C@@H]1C[C@@H]2O [Paclitaxel] (first compound max 1 µM, 7x7, partner max 3 µM) this time
Response: 0.397

More entries:
Prompt: Suppose we examine the molecule NC1(C(=O)N[C@@H](CCO)c2ccc(Cl)cc2)CCN(c2ncnc3[nH]ccc23)CC1 [Capivasertib] + COc1nnc2ccc(N3CCC(c4ccc(OCCN5CCN(C)C(=O)[C@H]5C)cc4)CC3)nn12 [AZD5153] (first compound max 10 µM, 7x7, partner max 1 µM) ; what combination Emax value has been reported?
Response: 0.588

Prompt: Input Cn1cnc2c(F)c(Nc3ccc(Br)cc3Cl)c(C(=O)NOCCO)cc21 [Selumetinib] + C=CCn1c(=O)c2cnc(Nc3ccc(N4CCN(C)CC4)cc3)nc2n1-c1cccc(C(C)(C)O)n1 [AZD1775] (first compound max 10 µM, partner max 1 µM)
Response: 0.194
